- ASSAYED SYSTEM: full length recombinant Pim-1 (Homo sapiens (Human))
- Sequence (P11309 whole entry): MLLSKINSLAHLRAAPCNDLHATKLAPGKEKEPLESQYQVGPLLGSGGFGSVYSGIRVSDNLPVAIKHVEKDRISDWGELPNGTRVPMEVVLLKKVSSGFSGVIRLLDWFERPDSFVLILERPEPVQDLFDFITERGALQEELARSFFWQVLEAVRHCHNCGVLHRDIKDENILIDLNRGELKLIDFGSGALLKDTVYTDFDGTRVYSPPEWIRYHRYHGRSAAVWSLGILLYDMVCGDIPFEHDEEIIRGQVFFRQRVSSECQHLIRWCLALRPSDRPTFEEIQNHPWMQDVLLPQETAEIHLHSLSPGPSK
- ASSAY PROTOCOL: Pim enzyme assay (HTRF, phosphorylation of biotinylated-BAD (S112) peptide), Pim-1
- Format: biochemical
- COND: Pim-1 enzyme assay; read-out: Pim_1_IC50
pIC50: −log10 of the molar value.
Listed next: entries and their corresponding pIC50.

| MOLECULE | pIC50 |
| --- | --- |
| CC1(C)COCCN1c1nnc(-c2ccc3[nH]cc(-c4cncc(C5CC5)n4)c3c2)o1 [Example 253] | 7.57 |
| CC(C)(C)Nc1nnc(-c2ccc3[nH]cc(-c4nccc(C5CC5)n4)c3c2)o1 [Example 54, 2,2,2-trifluoroacetate] | 8.80 |
| CC(C)Oc1cccc(-c2c[nH]c3ccc(-c4nnc(N)o4)nc23)c1 [Example 126] | 6.57 |
| CC(C)Nc1cncc(-c2c[nH]c3ccc(-c4nnc(N)o4)cc23)n1 [Example 101] | 8.82 |
| CNc1nnc(-c2ccc3[nH]cc(-c4cccc(N5CCOCC5)n4)c3c2)s1 [Example 214] | 7.59 |
| Nc1nnc(-c2ccc3[nH]cc(-c4cnc(OC5CCCC5)cn4)c3c2)s1 [Example 195] | 6.02 |
| COc1cncc(-c2c[nH]c3ccc(-c4nnc(N)s4)cc23)c1 [Example 199] | 6.57 |
| COc1ccc(CNc2nnc(-c3ccc4[nH]cc(-c5cncc(C6CC6)n5)c4c3)o2)cc1 [Example 36, 2,2,2-trifluoroacetate] | 7.37 |
